# subject-of-test: Streptavidin (Streptomyces avidinii) (UniProt P22629)
# Sequence (P22629 whole entry, looked up): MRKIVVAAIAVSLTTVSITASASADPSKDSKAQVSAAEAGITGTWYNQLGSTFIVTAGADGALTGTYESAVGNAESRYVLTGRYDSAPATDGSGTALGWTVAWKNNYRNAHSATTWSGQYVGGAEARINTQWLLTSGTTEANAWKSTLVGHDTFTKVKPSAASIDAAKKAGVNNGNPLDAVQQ
# test-details: streptavidin binders on small-molecule microarray, primary screen, artefact control for SMM compound annotation, biophysical, 635/667 nm fluorescence (AID 1147);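 further: signal reflects streptavidin binding to arrayed compounds as a control protein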
# assay-conditions: streptavidin binding, higher = more signal
Documented composite z-score across a set of molecules

>  <molecule>
C=CCC(OC(C)=O)[C@@H]1[C@@H](N(Cc2cccc3ccccc23)C(=O)c2ccc(C)cc2)c2cc(OCCCO)ccc2N1C(=O)c1ccc(-c2ccccc2)cc1 (stereo not given in full)

>  <composite z-score>
0.425

$$$$
>  <molecule>
COc1ccc([Si](C)(C)[C@@H]2[C@@H](CCO)O[C@]3(C(=O)N(Cc4ccc(NC(=O)[C@H](C)O)cc4)c4ccccc43)[C@H]2C)cc1

>  <composite z-score>
0.458

$$$$
>  <molecule>
CCc1cccc(NC(=O)O[C@H]2[C@H](OC(=O)Nc3ccccc3)[C@@H](OC(=O)Nc3ccccc3)[C@@H](OC)O[C@@H]2CO)c1

>  <composite z-score>
0.39

$$$$
>  <molecule>
C=CCNC(=O)[C@@H]1[C@H]2C(=O)O[C@H](c3ccccc3)[C@H](c3ccccc3)N2[C@H](c2ccc(OCCO)cc2)[C@@]12C(=O)N(C(=O)OCCOC)c1ccc(C#CC3(O)CCCCCC3)cc12

>  <composite z-score>
0.788

$$$$
>  <molecule>
CCCCCCc1nc(-c2cc(C)c(OC)c(C)c2)cc2c1[Si](C(C)C)(C(C)C)O[C@H]2c1ccccc1

>  <composite z-score>
0.0741

$$$$
>  <molecule>
O=[N+]([O-])c1ccc(C[n+]2ccc3ccc(O)cc3c2)o1

>  <composite z-score>
1.29

$$$$
>  <molecule>
O=C1O[C@@H](c2ccccc2)[C@@H](c2ccccc2)N2[C@@H](c3ccc(OCCO)cc3)[C@]3(C(=O)Nc4ccc(C#CCCO)cc43)[C@@H](C(=O)N3CCN(c4ncccn4)CC3)[C@H]12

>  <composite z-score>
0.509

$$$$
>  <molecule>
COc1cccc([C@H]2N[C@H](C(=O)O)CC[C@@H]2C)c1

>  <composite z-score>
0.158

$$$$
>  <molecule>
C=C(C(=O)CC[C@H](OC(=O)c1ccccc1-c1ccccc1C(=O)O)c1ccc(CO)o1)C(C)C

>  <composite z-score>
0.194

$$$$
>  <molecule>
COc1ccc(CCNC(=O)[C@@]2(c3ccc([N+](=O)[O-])cc3)CC(=O)N(C(C)C)[C@@H]2c2ccc(CO)cc2)cc1

>  <composite z-score>
-0.698

$$$$

----------
# test-details: E. coli growth modulation, two-sided OD650, primary screen, E. coli filamentation project, strain DRC41, 24 h (AID 1093);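 further: MC1000 strain lacking acrAB efflux and sulA so SOS filamentation is blocked; test concentration not given here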
# assay-conditions: OD650, 24 h, higher = more signal, called active from +8 up or from −8 down
parameter: z-score

>  <compound>
CCN1C(C)=C(C(=O)OC)[C@@H](c2ccccc2)N2C(=O)[C@](O)(C(=O)OC)[C@@H](c3ccccc3)C(C(C)=O)=C12

>  <assay-result>
0.556

$$$$
>  <compound>
[N-]=[N+]=NCc1ccccc1C[C@@]1(C(=O)O)N=C(c2ccc(OCCCO)cc2)O[C@@H]1c1ccccc1N=[N+]=[N-]

>  <assay-result>
0.602

$$$$
>  <compound>
O=C(NCc1ccccc1)c1ccc(Br)cc1[N+](=O)[O-]

>  <assay-result>
0.768

$$$$
>  <compound>
C[C@@H]1CC[C@H]2C(=O)N3[C@@H](CC[C@@H](C)[C@@H]3c3cccc(N4CCOCC4)c3)C(=O)N2[C@H]1c1cccc(Br)c1

>  <assay-result>
0.732

$$$$
>  <compound>
Cc1ccc(S[C@]2(C(=O)NC(C)C)CC(=O)N(Cc3cc(C(F)(F)F)cc(C(F)(F)F)c3)[C@@H]2c2ccc(CO)cc2I)cc1

>  <assay-result>
0.715

$$$$
>  <compound>
C=CC(=O)O[C@@H](Cc1ccccc1)[C@H]1C2C=CCCC=C2CN1Cc1cccc(Cl)c1 (stereo partly specified)

>  <assay-result>
2.01

$$$$
>  <compound>
C=CCc1cccc([C@@H]2[C@@H](C)CC[C@H]3C(=O)N4[C@H](c5cccc(CC=C)c5)[C@@H](C)CC[C@H]4C(=O)N23)c1

>  <assay-result>
0.533

$$$$
>  <compound>
COc1ccc(NN2C(C(O)c3cc(OC)c(OC)c(OC)c3)C=CC3C(=O)N(C4CCCCC4)C(=O)C32)cc1 (stereo unspecified)

>  <assay-result>
-0.319

$$$$
>  <compound>
CCOC(=O)C1=C[C@@H](c2ccccc2)N(S(=O)(=O)c2ccc(C)cc2)[C@H]1c1ccc(F)cc1

>  <assay-result>
-0.382

$$$$
>  <compound>
C[N+](C)(C)CCCCNC(=O)[C@@H]1C[C@@H]2C(=O)N3CCC[C@H]3C(=O)N2[C@@H]1c1cccc(OCCO)c1

>  <assay-result>
1.54

$$$$
>  <compound>
C=CCC(OC(C)=O)[C@@H]1[C@@H](N(Cc2ccc(-c3ccccc3)cc2)C(=O)c2ccc(C)cc2)c2cc(OCCCO)ccc2N1C(=O)c1ccc(-c2ccccc2)cc1 (stereo partly specified)

>  <assay-result>
0.65

$$$$
>  <compound>
C=C(CCCC)C(=O)CC[C@@H](OC(C)=O)c1ccccc1OCCO

>  <assay-result>
0.682

$$$$
>  <compound>
C=CCNC(=O)[C@H]1[C@@H]2C(=O)O[C@@H](c3ccccc3)[C@@H](c3ccccc3)N2[C@@H](c2ccc(O)cc2)[C@]12C(=O)Nc1ccc(C#CCNC(N)=O)cc12

>  <assay-result>
2.18

$$$$
>  <compound>
C=CC[C@]1(C(=O)N2CCCCC2)N=C(c2ccc(OCCCO)cc2)O[C@H]1c1ccccc1N=[N+]=[N-]

>  <assay-result>
0.208

$$$$
>  <compound>
C=C[C@H](OC)[C@@H](OC(=O)Nc1ccc(SC)cc1)c1ccc(O)c(F)c1

>  <assay-result>
1.48

$$$$
>  <compound>
O=C1OCC=C[C@H]2OC34C=CCN(Cc5ccccc5)C(=O)[C@H]3N(CCCCCO)C(=O)[C@@H]4[C@@H]12 (stereo partly specified)

>  <assay-result>
2.33

$$$$
>  <compound>
COCCOC(=O)N1C(=O)[C@@]2(c3cc(C#CC4=CCCCC4)ccc31)[C@H](C(=O)NC[C@H](O)c1ccccc1)[C@H]1C(=O)O[C@H](c3ccccc3)[C@H](c3ccccc3)N1[C@@H]2c1ccccc1OCCO

>  <assay-result>
-0.0963

$$$$
>  <compound>
CCCCCCc1nc(C2CC2)c(C)c2c1[Si](C(C)C)(C(C)C)OC2

>  <assay-result>
1.69

$$$$
>  <compound>
COc1ccc([Si](C)(C)[C@H]2[C@H](CC(=O)N3Cc4ccccc4C[C@H]3CO)O[C@@]3(C(=O)N(Cc4cccc(N5CCOC5=O)c4)c4ccccc43)[C@@H]2C)cc1

>  <assay-result>
1.4

$$$$
>  <compound>
CO[C@H]1COC(=O)[C@H](C)NC(=O)CC=C[C@@H](C)[C@H](NS(=O)(=O)c2ccc(C)cc2)COC(=O)CC=C[C@@H]1C

>  <assay-result>
0.119

$$$$
>  <compound>
Cc1ccc([C@@H]2CC=C(C(=O)O)[C@H](c3ccccc3)N2S(=O)(=O)c2ccc(C)cc2)cc1

>  <assay-result>
-1.25

$$$$
